measurement.notes: GAPDH versus PEG-3 reporter suppression – cell-based, luminescence, counter-screen for PEG-3 promoter inhibitor project, SAR follow-up (AID 651551)
experimental.setup: HeLa PEG-Prom / GAPDH luciferase reporter, 6 or 24 h, run 2, 6 h; at 99 µM (top of the series)
property.name: inhibition % (higher = more inhibition) (%)
Your answer is read as %, so omit the unit and give the number.

Past entries and their recorded results:
{"columns": ["structure", "quantity.unit", "inhibition % (higher = more inhibition)"],
 "data": [
  ["Cc1nc(NC(=O)c2ccccc2)sc1-c1csc(Nc2ccccc2Cl)n1", "%", -2.1],
  ["Cc1nc(NC(=O)c2ccccc2)sc1-c1csc(Nc2cccc(Cl)c2C)n1", "%", 35.5],
  ["COCCCNC(=O)c1ccc(Cn2c(=O)c3ccccc3n(Cc3ccccc3C#N)c2=O)cc1", "%", 21.9],
  ["COc1ccc(-n2nc(C(=O)NCC(=O)Nc3cccc(OC)c3)c3ccccc3c2=O)cc1", "%", 28.5],
  ["Cc1ccc(Cl)cc1Nc1nc(-c2sc(NC(=O)c3ccco3)nc2C)cs1", "%", 71]
]}

// next item, inhibition % (higher = more inhibition) requested
[in] Which inhibition % (higher = more inhibition) value belongs to COc1ccccc1Nc1nc(-c2sc(NC(=O)c3ccco3)nc2C)cs1 ?
[out] 72.7

* * *

measurement.notes: GAPDH versus PEG-3 reporter suppression – cell-based, luminescence, counter-screen for PEG-3 promoter inhibitor project, SAR follow-up (AID 651551)
experimental.setup: HeLa PEG-Prom / GAPDH luciferase reporter, 6 or 24 h, run 2, 6 h; at 99 µM (top of the series)
property.name: inhibition % (higher = more inhibition)

Past entries and their recorded results:
{"columns": ["structure", "inhibition % (higher = more inhibition)"],
 "data": [
  ["O=C(Nc1nc(-c2ccccc2)cs1)c1nn(-c2ccccc2)c(=O)c2ccccc12", "28.9%"],
  ["Cc1cc(NC(=O)c2ccccc2)n(-c2nc3ccccc3[nH]2)n1", "15.3%"],
  ["O=C(Nc1nc2ccccc2s1)c1nn(-c2ccccc2)c(=O)c2ccccc12", "6.36%"]
]}

[in] Which inhibition % (higher = more inhibition) value belongs to CCCn1nc(C(=O)Nc2nc3ccccc3s2)c2ccccc2c1=O ?
[out] 12.5%

[in] Which inhibition % (higher = more inhibition) value belongs to O=C(Nc1nccs1)c1nn(-c2ccccc2)c(=O)c2ccccc12 ?
[out] 50.3%

[in] Which inhibition % (higher = more inhibition) value belongs to CCn1nc(C(=O)Nc2nc(-c3ccccn3)cs2)c2ccccc2c1=O ?
[out] 72.7%

[in] Which inhibition % (higher = more inhibition) value belongs to Cc1cc(NC(=O)c2ccccc2C)n(-c2nc3ccccc3[nH]2)n1 ?
[out] 26.1%

[in] Which inhibition % (higher = more inhibition) value belongs to CCn1cc(C(=O)NCc2ccco2)c(=O)c2cc(S(=O)(=O)N3CCCC3)ccc21 ?
[out] 42.1%

[in] Which inhibition % (higher = more inhibition) value belongs to Cc1nc(NC(=O)c2ccccc2)sc1-c1csc(Nc2ccccc2)n1 ?
[out] 74.5%

Cited source: PubChem BioAssay AID651551
